# assay_target: UniProtKB P40763
# Sequence (P40763 whole entry): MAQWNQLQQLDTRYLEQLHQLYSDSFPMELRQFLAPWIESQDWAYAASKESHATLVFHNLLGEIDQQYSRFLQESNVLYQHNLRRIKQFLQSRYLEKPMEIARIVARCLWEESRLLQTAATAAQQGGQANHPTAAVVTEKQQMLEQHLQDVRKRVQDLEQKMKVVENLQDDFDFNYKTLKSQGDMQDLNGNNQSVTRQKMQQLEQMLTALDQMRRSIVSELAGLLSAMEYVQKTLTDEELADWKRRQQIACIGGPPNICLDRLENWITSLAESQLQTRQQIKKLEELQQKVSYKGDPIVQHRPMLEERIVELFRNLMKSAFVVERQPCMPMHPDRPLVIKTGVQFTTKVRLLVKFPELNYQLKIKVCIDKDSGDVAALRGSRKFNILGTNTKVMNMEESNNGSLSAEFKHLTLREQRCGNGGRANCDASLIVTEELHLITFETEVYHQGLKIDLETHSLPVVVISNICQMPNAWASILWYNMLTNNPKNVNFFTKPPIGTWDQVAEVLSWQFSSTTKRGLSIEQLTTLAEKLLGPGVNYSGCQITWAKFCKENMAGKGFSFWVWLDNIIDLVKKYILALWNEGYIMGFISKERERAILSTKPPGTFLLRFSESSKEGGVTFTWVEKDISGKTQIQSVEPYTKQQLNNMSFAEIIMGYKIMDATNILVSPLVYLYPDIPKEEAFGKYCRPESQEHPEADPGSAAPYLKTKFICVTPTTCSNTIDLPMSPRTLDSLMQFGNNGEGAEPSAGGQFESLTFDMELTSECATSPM
# protocol_summary: Inhibition of STAT3 (unknown origin) transfected in human HepG2 cells assessed as inhibition of IL-6 induced STAT3 phosphorylation by luciferase reporter gene assay
parameter_measured: pIC50
# pIC50 = -log10(concentration in molar units)

[ask] Note down pIC50 recorded for C=C(CCCCC)[C@@H](O)[C@H](C)C(=O)N1C(=O)OC[C@@H]1C(C)C
[reply] 5.23
